Hello, the source for this data is ChEMBL document CHEMBL4400556, in case you need it.

Organism: Homo sapiens
Experiment: Inhibition of human recombinant G5 sPLA2 at 0.091 mole fraction using arachidonyl-1-14C PAPC and PAPC by HPLC-MS analysis based radioactivity-based group specific mixed micelle assay relative to control
The reader will find reported inhibition values listed item by item below.

O=C(CCCCc1ccc2ccccc2c1)C(F)(F)F    37%
CCC[C@@H]1OC(=O)[C@@H]1CCCCc1ccc2ccccc2c1 (racemic)    < 25%
CCC[C@H]1OC(=O)[C@@H]1CCCc1ccccc1 (racemic)    25%
COc1ccc(CCCCC(=O)C(F)(F)C(F)(F)F)cc1    33%
CCC1OC(=O)C1CCCc1ccc2ccccc2c1 (centres undefined)    29%

Which inhibition value belongs to CCC[C@H]1OC(=O)[C@@H]1CCCc1ccc(OC)cc1 (racemic) ?
26%

Which inhibition value belongs to CC(C)C1OC(=O)C1CCCc1ccccc1 (centres undefined) ?
29%

Which inhibition value belongs to CCCCCCC1OC(=O)C1CCCc1ccc(-c2ccccc2)cc1 (centres undefined) ?
40%

Which inhibition value belongs to CCC[C@@H]1OC(=O)[C@@H]1CCCc1ccc(OC)cc1 (racemic) ?
29%
